# IC50 annotations
- system_name: Influenza Neuraminidase
- test_details: Influenza neuraminidase fluorimetric assay
- assay_conditions: 4-methylumbelliferyl-alpha-D-acetylneuraminic acid substrate 75 uM, pH 6.5, 37 C

Sample records with IC50:
[[record]]
molecule = "CCC(CC)C(NC(C)=O)C1C(NC(=N)N)CC(C(=O)O)C1O (single isomer, unassigned; (-)) [Compound 2]"
readout_name = "IC50"
meas_value = "< 50 nM"

[[record]]
molecule = "CCN(CC)C(=O)C(NC(C)=O)C1CC(C(=O)O)CC1NC(=N)N (stereo not drawn) [Compound 1]"
readout_name = "IC50"
meas_value = "< 50 nM"


Let's switch to this molecule now.
Request: GET /values?readout=IC50&item= CCC(CC)C(NC(C)=O)C1CC(C(=O)O)CC1NC(=N)N (single isomer, unassigned; (-)) [Compound 3]
Result: < 50 nM

----------
Assay system Sendai Virus Hemagglutinin-Neuraminidase (Sendai virus, UniProt P03425); read-out recorded as pIC50.
pIC50: −log10 of the molar value.

Worked set:
[[record]]
molecule = "CCC(CC)C(NC(C)=O)C1CC(C(=O)O)CC1NC(=N)N (single isomer, unassigned; (-))"
system_name = "Sendai Virus Hemagglutinin-Neuraminidase (Sendai virus, UniProt P03425)"
meas_value = "< 3.52"

[[record]]
molecule = "CCN(CC)C(=O)C(NC(C)=O)C1CC(C(=O)O)CC1NC(=N)N (stereo not drawn)"
system_name = "Sendai Virus Hemagglutinin-Neuraminidase (Sendai virus, UniProt P03425)"
meas_value = "< 3.52"


Now for another entry.
Request: Given the entry CCC(CC)C(NC(C)=O)C1C(NC(=N)N)CC(C(=O)O)C1O (single isomer, unassigned; (-)) , what pIC50 was observed with Sendai Virus Hemagglutinin-Neuraminidase (Sendai virus, UniProt P03425)?
Result: < 3.52
